Data credit: patent US20220315621A1

Target: GABAA receptor (rat brain cortical membranes, [35S]-TBPS binding)
Conditions: Table I-4; rat brain cortical membranes, 3 nM [35S]-TBPS, in the presence of 5 mM GABA
IC50 by entry:
endpoint: IC50

>>> measured_result("C[C@@]1(O)CC[C@H]2[C@H](CC[C@@H]3[C@@H]2CC[C@]2(C)[C@@H](CNC(=O)c4ccccc4)CCC[C@@H]32)C1 [I-C4]")
"0.1 to 1 µM"
>>> measured_result("C[C@@]1(O)CC[C@H]2[C@H](CC[C@@H]3[C@@H]2CC[C@]2(C)C[C@H](C(=O)Cn4cc(C#N)cn4)CC[C@@H]32)C1 [I-R17a]")
"1 to 10 µM"
>>> measured_result("CNC[C@H]1CCC[C@H]2[C@@H]3CC[C@@H]4C[C@](C)(O)CC[C@@H]4[C@H]3CC[C@]12C [I-C5]")
"1 to 10 µM"
>>> measured_result("COC[C@@]1(OC)CC[C@H]2[C@H](CC[C@@H]3[C@@H]2CC[C@]2(C)[C@@H](O)CCC[C@@H]32)C1 [I-L9]")
"1 to 10 µM"
>>> measured_result("COC[C@@]1(O)CC[C@H]2[C@@H](CC[C@@H]3[C@@H]2CC[C@]2(C)[C@@H](C(C)=O)CCC[C@@H]32)C1 [I-G14]")
"0.01 to 0.1 µM"
>>> measured_result("C[C@@]1(O)CC[C@H]2[C@H](CC[C@@H]3[C@@H]2CC[C@]2(C)C[C@@H](C(=O)Cn4cc(C#N)cn4)CC[C@@H]32)C1 [I-R17]")
"1 to 10 µM"
